The measurements presented in this section are drawn from PubChem BioAssay AID270.

Parameter: T/C. Scope: all listed entries.
- Test system: BDF1 mice, s.c. Lewis lung carcinoma, T/C %
- ASSAY PROCEDURE: NCI In Vivo Anticancer Drug Screen. Data for tumor model Lewis Lung Carcinoma (subcutaneous) in B6D2F1 (BDF1) mice
- ASSAY CONDITIONS: endpoint: median survival time; dose: 12.5 mg/kg/injection; schedule: Q01DX009 (ip); vehicle: Klucel (hydroxypropylcellulose) (HPC); higher = longer survival
Inconclusive results are not listed.

Below, 3 compounds whose answers are already recorded.
C=C1C(=O)OC2C3OC(C)(CCC(O)C3COC(C)=O)CC(OC(=O)/C(=C/C)COC(C)=O)C12 (centres undefined)    114 % of control
CN(C)[C@@H]1C(=O)C(C(N)=O)=C(O)[C@]2(O)C(=O)C3C(=O)c4c(O)ccc(Cl)c4[C@](C)(O)[C@H]3C[C@@H]12 (some centres undefined)    117 % of control
O=[N+]([O-])c1ccc(/C=N\Nc2ccc([N+](=O)[O-])cn2)cc1    88 % of control

Which T/C reading was recorded for the compound "Cc1cc(N)c2cc(NC(=O)CCCCCCCCC(=O)Nc3ccc4nc(C)cc(N)c4c3)ccc2n1" ?
105 % of control

* * *

- Tested on: BDF1 mice, s.c. Lewis lung carcinoma, T/C %
- ASSAY PROCEDURE: NCI In Vivo Anticancer Drug Screen. Data for tumor model Lewis Lung Carcinoma (subcutaneous) in B6D2F1 (BDF1) mice
- ASSAY CONDITIONS: endpoint: mean tumor weight; dose: 250.0 mg/kg/injection; schedule: Q01DX011 (ip); vehicle: saline; higher = larger tumour
Results filed as inconclusive are left out.
Quick list: T/C per entry.

For orientation, consider the following solved cases.
CS(=O)(=O)OCC(O)C(O)COS(C)(=O)=O (configuration not stated)    77 % of control
CC1OC(Oc2c(-c3ccc(O)c(O)c3)oc3cc(O)cc(O)c3c2=O)C(O)C(O)C1O (configuration not stated)    99 % of control
NC(=O)NC1NC(=O)NC1=O (configuration not stated)    103 % of control

Give its T/C value. Item: "O=c1[nH]cnc2nc[nH]c12"
107 % of control

# lookup: T/C of "CS(=O)(=O)OC[C@@H](O)[C@@H](O)COS(C)(=O)=O"
115 % of control

Look up T/C for this molecule: "CN(CC(=O)O)C(=N)N"
57 % of control

Which T/C value is on record for CC1OC(OCC2OC(Oc3c(-c4ccc(O)c(O)c4)oc4cc(O)cc(O)c4c3=O)C(O)C(O)C2O)C(O)C(O)C1O (configuration not stated) ?
67 % of control

* * *

- Test system: BDF1 mice, s.c. Lewis lung carcinoma, T/C %
- ASSAY PROCEDURE: NCI In Vivo Anticancer Drug Screen. Data for tumor model Lewis Lung Carcinoma (subcutaneous) in B6D2F1 (BDF1) mice
- ASSAY CONDITIONS: endpoint: median survival time; dose: 20.0 mg/kg/injection; schedule: Q01DX009 (ip); vehicle: saline; higher = longer survival
Records with an inconclusive call do not appear.
QUANTITY MEASURED: T/C

Would you please look over these solved cases?
C[N+](C)(C)CCOC(=O)/C=C/c1cnc[nH]1    95 % of control
CCN=C=NCCCN(C)C    107 % of control
O=P1(N(CCCl)CCCl)NCCCO1 (stereo not given)    104 % of control
C1CC[N-]CC1.C1CC[N-]CC1.C1CC[N-]CC1.C1CC[N-]CC1.[Cl][Co][Cl]    95 % of control
COc1cc2c[n+](C)c3c4cc5c(cc4ccc3c2cc1OC)OCO5 (tested in a mixture with another compound)    86 % of control

Entry "CC(C)NCC(=O)c1ccc(O)c(O)c1" has what T/C?
114 % of control

Entry CCOP(=O)(N1CC1(C)C)N1CC1(C)C (stereo not given) : reported T/C = ?
94 % of control

Field request: T/C | item: "CS(=O)(=O)OCCCNCCCOS(C)(=O)=O"
101 % of control

Please look up its T/C: NC(=O)c1ncn(C2OC(CO)C(O)C2O)n1 (stereo not given)
100 % of control

I am curious: what T/C value has been reported for "O=NN(CCF)C(=O)NC1CCSCC1" ?
108 % of control

* * *

- Test system: BDF1 mice, s.c. Lewis lung carcinoma, T/C %
- ASSAY PROCEDURE: NCI In Vivo Anticancer Drug Screen. Data for tumor model Lewis Lung Carcinoma (subcutaneous) in B6D2F1 (BDF1) mice
- ASSAY CONDITIONS: endpoint: median survival time; dose: 50.0 mg/kg/injection; schedule: Q01DX009 (ip); vehicle: other; higher = longer survival
Results filed as inconclusive are left out.
// reported T/C for each item listed

Illustrative cases are given below, each with its answer.
Cc1cc(C)c(NC(=O)N(CCCl)N=O)cc1C    87 % of control
COc1cc(NC(=O)N(CCCl)N=O)cc(OC)c1OC    99 % of control
COC1C(OC(=O)c2ccc(C)[nH]2)C(O)C(Oc2ccc3c(O)c(NC(=O)c4ccc(O)c(CC=C(C)C)c4)c(=O)oc3c2Cl)OC1(C)C (centres undefined)    105 % of control
C=C(C)C(=O)OCCN(C)C (tested in a mixture with another compound)    102 % of control
N=C(N)Sc1cc(O)ccc1O    93 % of control
COc1ccc(CN(CCOC(=O)c2ccc(OC)cc2)CCN(CCOC(=O)c2ccc(OC)cc2)Cc2ccc(OC)cc2)cc1    98 % of control
N/C(=N\Cl)C(Cl)(Cl)Cl    96 % of control
Cc1ccc(NC(=O)N(CCBr)N=O)cc1    96 % of control

Recorded T/C for "Cc1nn(-c2ccccc2)c(N)c1C#N" with BDF1 mice, s.c. Lewis lung carcinoma, T/C %, please?
97 % of control

* * *

Listed here are molecules together with their documented T/C.
- Tested on: BDF1 mice, s.c. Lewis lung carcinoma, T/C %
- ASSAY PROCEDURE: NCI In Vivo Anticancer Drug Screen. Data for tumor model Lewis Lung Carcinoma (subcutaneous) in B6D2F1 (BDF1) mice
- ASSAY CONDITIONS: endpoint: median survival time; dose: 12.5 mg/kg/injection; schedule: Q01DX009 (ip); vehicle: Klucel (hydroxypropylcellulose) (HPC); higher = longer survival
Inconclusive results are not listed.

Nc1nc2c(ncn2C2OC(CO)C(O)C2N)c(=O)[nH]1 (stereo unspecified)    102 % of control
CCO/C=C1\SC(=S)N(c2ccccc2OC)C1=O    101 % of control
S=P(NCCNP(=S)(N1CC1)N1CC1)(N1CC1)N1CC1    102 % of control

Record request: T/C value, item "O=C(Nc1ccc(C(=O)O)cc1)Oc1ccc(N(CCCl)CCCl)cc1"
100 % of control

Would you kindly share the measured T/C for OC1CC2CCC(C1)N2CCCN1c2ccccc2Sc2ccc(Cl)cc21 (stereo unspecified) ?
95 % of control

GET /values?readout=T/C&item= "Cc1cnc(/C=N\NC(N)=S)c2cccc(N)c12"
90 % of control

* * *

- Tested on: BDF1 mice, s.c. Lewis lung carcinoma, T/C %
- ASSAY PROCEDURE: NCI In Vivo Anticancer Drug Screen. Data for tumor model Lewis Lung Carcinoma (subcutaneous) in B6D2F1 (BDF1) mice
- ASSAY CONDITIONS: endpoint: mean tumor weight; dose: 100.0 mg/kg/injection; schedule: Q01DX010 (ip); vehicle: saline; higher = larger tumour
Records with an inconclusive call do not appear.
QUANTITY MEASURED: T/C

The cases that follow already have their T/C on record.
CN(C)/N=N/c1nc[nH]c1C(N)=O    44 % of control
COc1ccc(-c2cc(=O)c3ccccc3o2)c(OC)c1OC    101 % of control
O=c1cc(-c2ccccc2)oc2ccc(O)cc12    86 % of control
CC(C)=CCC/C(C)=C/C=O    61 % of control
O=c1c(O)c(-c2ccccc2)oc2ccccc12    83 % of control

Provide value of T/C for this record tested with BDF1 mice, s.c. Lewis lung carcinoma, T/C %: "O=c1cc(-c2ccccc2)oc2cccc(O)c12"
70 % of control

* * *

- Tested on: BDF1 mice, s.c. Lewis lung carcinoma, T/C %
- ASSAY PROCEDURE: NCI In Vivo Anticancer Drug Screen. Data for tumor model Lewis Lung Carcinoma (subcutaneous) in B6D2F1 (BDF1) mice
- ASSAY CONDITIONS: endpoint: median survival time; dose: 200.0 mg/kg/injection; schedule: Q01DX004 (ip); vehicle: saline
Records with an inconclusive call do not appear. How the source made its calls: active means survival T/C of 150% or more; inactive means T/C below 125% in these data.
Choose the fitting class; nothing outside TRUE = active, FALSE = inactive is accepted.

Example entries and their recorded answers appear below.
CCOP(=O)(CC(=O)NC(CC(=O)OC)C(=O)OC)OCC (centres undefined)    FALSE
O=C(CP(=O)(O)O)NC(CC(=O)OCc1ccccc1)C(=O)OCc1ccccc1 (centres undefined)    FALSE
CCOC(=O)CC(NC(=O)CP(=O)(OCC)OCC)C(=O)OCC (centres undefined)    FALSE

Field: next compound
So what was the verdict on O=C(O)CC(NC(=O)CP(=O)(O)O)C(=O)O (centres undefined) in this test?
TRUE
